Tested on: Blumeria graminis f. sp. hordei
Assay: Fungicidal activity: Barley Powdery Mildew (ERYSGH)
Assay type: in vivo
Details: 100 ppm, 1 DP (1 Day Protectant)
Measure name: ERYSGH disease control rating

COc1ccnc(C(=O)N[C@H]2COC[C@H](CC3CC3)[C@@H](c3ccccc3)[C@H](C)OC2=O)c1OC(C)=O    A (>70)
COc1ccnc(C(=O)N[C@H]2COC[C@H](Cc3ccccc3)[C@@H](Cc3ccccc3)[C@H](C)OC2=O)c1OCOC(C)=O    A (>70)

----------
Measure name: melting point

COc1ccnc(C(=O)N[C@H]2COC[C@H](Cc3ccc(C(F)(F)F)cc3)[C@@H](CC(C)C)[C@H](C)OC2=O)c1OC(C)=O    75 to 79 °C
C=C[C@@H]1[C@@H](Cc2ccccc2)COC[C@H](NC(=O)c2nccc(OC)c2O)C(=O)O[C@H]1C    57 to 63 °C
C[C@@H]1OC(=O)[C@@H](N)COC[C@H](CC2CCCCC2)[C@H]1CC1CCCCC1.Cl    191 to 197 °C (dec.)
CC(C)CC[C@H]1COC[C@H](N)C(=O)O[C@@H](C)[C@@H]1C1CCCC1.Cl    149 to 153 °C

What value of melting point has been reported for the following compound? COc1ccnc(C(=O)N[C@H]2COC[C@H](CCc3ccccc3)[C@@H](CCc3ccccc3)[C@H](C)OC2=O)c1O
52 to 56 °C

What value of melting point has been reported for the following compound? COc1cccc(C[C@H]2COC[C@H](N)C(=O)O[C@@H](C)[C@@H]2Cc2cccc(OC)c2)c1.Cl
181 to 186 °C (dec.)

What value of melting point has been reported for the following compound? COc1ccnc(C(=O)N[C@H]2COC[C@H](CCCc3ccccc3)[C@@H](CCc3ccccc3)[C@H](C)OC2=O)c1OCOC(C)=O
37 to 40 °C
